Test system: HIV-1
Protocol Details: Inhibitory activity against HIV-1 (literature method, Chen et al. J Virol 1997)
Settings: Human immunodeficiency virus 1, read-out: Anti-HIV (%, 1.0 μM)
Threshold check on inhibition at 1 µM: at or above 60% gives MET, strictly below gives NOT MET.

Please review the following examples before continuing.
inhibition at 1 µM >= 60% for CCCc1cc(=O)oc2c3c(c4c(c12)OC(C)(C)C=C4)OC(C)CC3=O (centres unmarked) ?
MET

inhibition at 1 µM >= 60% for CCCc1cc(=O)oc2c3c(c4c(c12)OC(C)C=C4)OCC(C)C3=O (centres unmarked) ?
MET

inhibition at 1 µM >= 60% for CCCc1cc(=O)oc2c3c(c4c(c12)OC(c1ccccc1[N+](=O)[O-])C=C4)OC(C)CC3=O (centres unmarked) ?
NOT MET

---
inhibition at 1 µM >= 60% for CCCCC1C=Cc2c3c(c4oc(=O)cc(CC)c4c2O1)C(=O)CC(C)O3 (centres unmarked) ?
MET

inhibition at 1 µM >= 60% for CCCc1c(F)c(=O)oc2c3c(c4c(c12)OCC(C)=C4)OC(C)CC3=O (centres unmarked) ?
NOT MET

inhibition at 1 µM >= 60% for CCCCc1cc(=O)oc2c3c(c4c(c12)OC(C)C=C4)OC(C)CC3=O (centres unmarked) ?
MET

inhibition at 1 µM >= 60% for CCc1c(F)c(=O)oc2c3c(c4c(c12)OC(C)C=C4)OC(C)CC3=O (centres unmarked) ?
NOT MET

inhibition at 1 µM >= 60% for CCCc1cc(=O)oc2c3c(c4c(c12)OC(C)(C)C=C4)OC1CC1C3=O (centres unmarked) ?
MET

---

Test system: host cells of the virus
Protocol Details: Cell toxicity to the host cells of the virus at 10 μM
Type: cell-based
Parameter: Cell toxicity (10 μM)

Example entries begin here.
Could you please provide reported Cell toxicity (10 μM) for C/C=C/C1C=Cc2c3c(c4oc(=O)c(Cl)c(CCC)c4c2O1)C(=O)CC(C)O3 (centres unmarked) ? Thanks!
−

Could you please provide reported Cell toxicity (10 μM) for CCCc1c(Cl)c(=O)oc2c3c(c4c(c12)OCC(C)C4OCC)OC(C)CC3=O (centres unmarked) ? Thanks!
−

Could you please provide reported Cell toxicity (10 μM) for `CCCc1cc(=O)oc2c1c1c(c3occc(=O)c32)C=CC(C)(C)O1` ? Thanks!
−

Could you please provide reported Cell toxicity (10 μM) for CCCc1cc(=O)oc2c3c(c4c(c12)OC(C)(C)C=C4)OC1CC1C3=O (centres unmarked) ? Thanks!
−

Next:
Could you please provide reported Cell toxicity (10 μM) for CCCc1cc(=O)oc2c3c(c4c(c12)OC(CCC)C=C4)OC(C)CC3=O (centres unmarked) ? Thanks!
−

---

Tested on: Mycobacterium tuberculosis H37Rv (ATCC 27294)
Protocol Details: Microplate Alamar Blue Assay (MABA) in BACTEC 12B medium (TAACF screen)
Format: cell-based
Settings: MABA, H37Rv, read-out: IC50
Reported IC50 values follow for various compounds
Enter your answer as a number in µg/mL; do not include the unit.

Supply IC50 measured with Mycobacterium tuberculosis H37Rv (ATCC 27294) for CCCc1cc(=O)oc2c3c(c4c(c12)OC(C)C=C4)OC(C)CC3=O (centres unmarked) [Example 80] .
3.42

Supply IC50 measured with Mycobacterium tuberculosis H37Rv (ATCC 27294) for CCCc1cc(=O)oc2c(-c3cccn3Cc3ccccn3)c(O)c3c(c12)OC(C)(C)C=C3 [Example 68] .
33

Supply IC50 measured with Mycobacterium tuberculosis H37Rv (ATCC 27294) for CCc1cc(=O)oc2c3c(c4c(c12)OC(CC)C=C4)OC(C)CC3=O (centres unmarked) [Example 53] .
6.1
